Biological target: T1, human CD4, cell-expressed (human, UniProt P01730 26-458)
T1 construct: whole, on cells
Assay: flow cytometry on MOLM-13 cells (CD4, no IL12R or IL23R), upper right panel
readout-type: EC50 (read off the curve)

EC50 (read off the curve) for IL23R#19-35GS-CD4#8 (bispecific antibody, also called BI#42; T023200042) EVQLVESGGGLVQPGGSLTLSCVASGRTFSTDVMGWFRQAPGKEREFVAAHRTSGISTVYAASVKGRFTISRDNAKNTVYLGMKSLKPEDTAVYVCAAGSDASGGYDYWGQGTLVTVSSGGGGSGGGGSGGGGSGGGGSGGGGSGGGGSGGGGSEVQLVESGGGSVQPGGSLTLSCGTSGRTFNVMGWFRQAPGKEREFVAAVRWSSTGIYYTQYADSVKSRFTISRDNAKNTVYLEMNSLKPEDTAVYYCAADTYNSNPARWDGYDFRGQGTLVTVSS ?
~4 nM
